target: human AR (Homo sapiens, UniProt P10275)
Construct: expressed in transfected cells; host or cells: COS-1
Sequence (P10275 1-920): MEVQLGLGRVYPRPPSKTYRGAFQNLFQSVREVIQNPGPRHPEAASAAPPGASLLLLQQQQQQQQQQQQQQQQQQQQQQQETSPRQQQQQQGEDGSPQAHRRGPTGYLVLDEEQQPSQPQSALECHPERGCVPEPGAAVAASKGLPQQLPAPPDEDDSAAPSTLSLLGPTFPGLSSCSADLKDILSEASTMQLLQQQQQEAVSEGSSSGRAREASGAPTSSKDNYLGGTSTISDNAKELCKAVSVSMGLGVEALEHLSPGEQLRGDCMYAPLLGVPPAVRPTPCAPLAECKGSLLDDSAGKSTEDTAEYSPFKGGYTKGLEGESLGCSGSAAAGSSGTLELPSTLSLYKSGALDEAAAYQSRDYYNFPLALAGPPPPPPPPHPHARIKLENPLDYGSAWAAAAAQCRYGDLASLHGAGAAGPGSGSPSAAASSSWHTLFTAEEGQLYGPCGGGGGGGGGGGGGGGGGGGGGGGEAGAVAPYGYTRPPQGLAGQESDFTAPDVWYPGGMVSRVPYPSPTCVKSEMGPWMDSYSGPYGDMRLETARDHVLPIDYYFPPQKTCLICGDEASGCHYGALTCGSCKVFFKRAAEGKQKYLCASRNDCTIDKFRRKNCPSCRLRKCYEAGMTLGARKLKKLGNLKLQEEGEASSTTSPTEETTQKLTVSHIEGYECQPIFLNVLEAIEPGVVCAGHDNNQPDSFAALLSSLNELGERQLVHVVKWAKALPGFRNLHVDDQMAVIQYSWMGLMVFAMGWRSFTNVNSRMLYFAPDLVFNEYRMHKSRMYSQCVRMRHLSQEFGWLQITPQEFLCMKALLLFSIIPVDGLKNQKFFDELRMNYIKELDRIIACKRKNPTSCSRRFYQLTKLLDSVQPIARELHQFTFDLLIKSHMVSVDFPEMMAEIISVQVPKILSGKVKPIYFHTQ
experiment-summary: Competitive AR binding assay against [3H]-R1881 in transiently transfected COS-1 cells
condition-summary: Table 2; compound 13.4 μM; [3H]-R1881 1.34 nM; complete inhibition equals 100%
measurement-type: Inhibition of [3H]-R1881 binding at 1.34 nM ± S.D. (%)

compound: Fc1ccc(C2=NOC3CCCCCC23)c(C(F)(F)F)c1 (stereo not shown) [Example 40b]
reading-unit: %
test-value: 92.2

compound: Fc1ccc(C2=NOC3CCCCC23)c(C(F)(F)F)c1 (stereo not shown) [Example 36b]
reading-unit: %
test-value: 87.7

compound: O=[N+]([O-])c1ccc(C2=NOC3CCCCCC23)c(C(F)(F)F)c1 (stereo not shown) [Example 42b]
reading-unit: %
test-value: 89.5

compound: N#Cc1ccc(C2=NOC3CCCC23)cc1C(F)(F)F (single isomer, unassigned) [Example 85b]
reading-unit: %
test-value: 91.8

compound: Fc1ccc(C2=NOC3CCCCCCC23)cc1C(F)(F)F (stereo not shown) [Example 43a]
reading-unit: %
test-value: 66.3

compound: N#Cc1ccc(C2=NOC3CCCCCC23)c(C(F)(F)F)c1 (stereo not shown) [Example 91b]
reading-unit: %
test-value: 87.4

compound: N#Cc1ccc(C2=NOC3CCCCC23)c(C(F)(F)F)c1 (stereo not shown) [Example 89b]
reading-unit: %
test-value: 83.6
